Molecular target: Cholinesterase (Equus caballus, UniProt P81908)
Sequence (P81908 whole entry): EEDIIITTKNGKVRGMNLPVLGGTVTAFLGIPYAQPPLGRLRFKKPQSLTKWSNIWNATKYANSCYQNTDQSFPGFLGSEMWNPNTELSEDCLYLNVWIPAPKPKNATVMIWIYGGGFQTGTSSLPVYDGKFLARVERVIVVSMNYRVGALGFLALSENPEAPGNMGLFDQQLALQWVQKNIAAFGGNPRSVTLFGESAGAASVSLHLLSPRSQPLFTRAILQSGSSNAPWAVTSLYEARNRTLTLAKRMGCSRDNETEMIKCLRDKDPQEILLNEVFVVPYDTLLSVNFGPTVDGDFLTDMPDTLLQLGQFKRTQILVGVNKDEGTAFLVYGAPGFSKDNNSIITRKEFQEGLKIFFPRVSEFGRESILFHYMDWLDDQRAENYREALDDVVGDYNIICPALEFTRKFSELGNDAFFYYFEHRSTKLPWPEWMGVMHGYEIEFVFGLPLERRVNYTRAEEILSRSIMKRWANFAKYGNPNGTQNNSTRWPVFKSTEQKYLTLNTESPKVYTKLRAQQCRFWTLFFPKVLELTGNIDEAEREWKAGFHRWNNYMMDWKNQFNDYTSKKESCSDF
pIC50: −log10 of the molar value.
Measured pIC50 of individual entries
Metric name: pIC50

INSERT INTO measurements (structure_notation, value_reported) VALUES
  ('Oc1ccccc1CNCCCNc1c2c(nc3ccccc13)CCCC2', 7.34),
  ('Oc1ccccc1CNCCCCCCCNc1c2c(nc3cc(Cl)ccc13)CCCC2', 7.75),
  ('Oc1ccccc1CNCCCCCCCCCNc1c2c(nc3ccccc13)CCCC2', 8.09),
  ('Oc1ccccc1CNCCCCNc1c2c(nc3cc(Cl)ccc13)CCCC2', 7.55),
  ('c1ccc(CNCCCCCCCCNc2c3c(nc4ccccc24)CCCC3)nc1', 8.52),
  ('Oc1ccccc1CNCCCCCCNc1c2c(nc3ccccc13)CCCC2', 8.02),
  ('Oc1ccccc1CNCCCCCCCNc1c2c(nc3ccccc13)CCCC2', 8.23),
  ('Oc1ccccc1CNCCCCCCCCCNc1c2c(nc3cc(Cl)ccc13)CCCC2', 7.64),
  ('Oc1ccccc1CNCCCCCCCCNc1c2c(nc3cc(Cl)ccc13)CCCC2', 7.73),
  ('Oc1ccccc1CNCCCCCCNc1c2c(nc3cc(Cl)ccc13)CCCC2', 7.95),
  ('CCN(CC)c1ccccc1CNCCCCCCCCNc1c2c(nc3ccccc13)CCCC2', 8.55),
  ('Oc1ccccc1CNCCCCNc1c2c(nc3ccccc13)CCCC2', 7.69),
  ('Oc1ccccc1CNCCNc1c2c(nc3cc(Cl)ccc13)CCCC2', 8.00);
